molecular target: recombinant human GST-Syk (Homo sapiens (Human)); experiment: Homogeneous Time-Resolved Fluorescence (HTRF) assay for the recombinant human Syk enzyme; conditions: recombinant human GST-Syk 5 pM, ATP 25 μM, read-out: rhSyk IC50
Known pIC50 of a selection of compounds
Conceptually, pIC50 converts a concentration in mol/L into minus its log10.

Cc1cc(Nc2cc(C(F)(F)F)ccn2)nc(-c2ccc(NC3CCN(C(=O)c4ccc(-c5ccccc5)cc4)CC3)nc2)c1 = 7.36
COc1ccc2cc(CC(=O)N3CCC(Nc4ccc(-c5cc(C)cc(Nc6cc(C(F)(F)F)ccn6)n5)cn4)CC3)ccc2c1 = 7.11
Cc1cc(Nc2cc(C(F)F)ccn2)nc(-c2ccc(C(C)(O)[C@H]3CC[C@H](C(=O)OC(C)C)CC3)nc2)c1 (single isomer, unassigned) = 7.30

Please turn your attention to the following entry.
Consider the compound shown here: CCOC(=O)OC(C)OC(=O)[C@H]1CC[C@H](C(C)(O)c2ccc(-c3cc(C)cc(Nc4cc(C(F)F)ccn4)n3)cn2)CC1 (single isomer, unassigned) [Example 20-6] What is its recorded pIC50? 7.68

====

# Lookup of reported half-life at 10 μM keyed by entry
test: Hydrolysis assay: hydrolysis of prodrug to parent species in human liver S9; type: in vitro ADME; conditions: human liver S9 1 mg protein/mL, prodrug 10 μM, 37° C., pH 7.4, 1 mM NADPH; read-out: Half-life (min) of the conversion of the prodrug to the carboxylic acid
Form entry: value (min) — number only.

# example entries with known answers
CC(=O)OCOC(=O)[C@H]1CC[C@H](C(C)(O)c2ccc(-c3cc(C)cc(Nc4cc(C(F)F)ccn4)n3)cn2)CC1 (single isomer, unassigned) = 3.3
CCOC(=O)[C@H]1CC[C@H](C(C)(O)c2ccc(-c3cc(C)cc(Nc4cc(C(F)F)ccn4)n3)cn2)CC1 (single isomer, unassigned) = 5.6
COC(=O)[C@H]1CC[C@H](C(C)(O)c2ccc(-c3cc(C)cc(Nc4cc(C(F)F)ccn4)n3)cn2)CC1 (single isomer, unassigned) = 4.6

Next, consider the following molecule.
Which half-life at 10 μM value is on record for CCOC(=O)OCOC(=O)[C@H]1CC[C@H](C(C)(O)c2ccc(-c3cc(C)cc(Nc4cc(C(F)F)ccn4)n3)cn2)CC1 (single isomer, unassigned) ? 3

====

biological target: recombinant human GST-Syk (Homo sapiens (Human)); assay: Homogeneous Time-Resolved Fluorescence (HTRF) assay for the recombinant human Syk enzyme; conditions: recombinant human GST-Syk 5 pM, ATP 25 μM, read-out: rhSyk IC50
QUANTITY_NAME: pIC50
Just so you know, pIC50 here is -log10 of the concentration in molar units; reply with that number alone.

# count of solved cases: 6
Cc1cc(Nc2cc(C(F)(F)F)ccn2)nc(-c2ccc(N3CC(C4CCCC(C(=O)O)C4)C3)nc2)c1 (stereo not shown) [Example 2-21] = 8.70
Cc1cc(Nc2cc(C(F)(F)F)ccn2)nc(-c2ccc(NC3CCN(C(=O)c4ccc5c(c4)C(=O)NC5)CC3)nc2)c1 [Example 4-4] = 9.00
CCOC(=O)[C@H]1CC[C@H](C(C)(O)c2ccc(-c3cc(C)cc(Nc4cc(C(F)F)ccn4)n3)cn2)CC1 (single isomer, unassigned) [Example 17] = 7.74
Cc1cc(Nc2cc(C(F)(F)F)ccn2)nc(-c2ccc(NC3CCN(C(=O)Cc4c(C)[nH]c5ccccc45)CC3)nc2)c1 [Example 4-88] = 7.96
Cc1cc(Nc2cc(C(F)(F)F)ccn2)nc(-c2ccc(NC3CCN(C(=O)Cc4ccc(O)c(F)c4)CC3)nc2)c1 [Example 4-116] = 8.40
Cc1cc(Nc2cc(C(F)(F)F)ccn2)nc(-c2ccc(NC3CCN(C(=O)c4ccc(C(N)=O)cc4)CC3)nc2)c1 [Example 4-23] = 8.52

Consider the molecule shown here: Cc1cc(Nc2cc(C(F)(F)F)ccn2)nc(-c2ccc(C3(O)CCN(C(=O)c4[nH]c5ccccc5c4C)CC3)nc2)c1 [Example 9-5] What is its recorded pIC50? 6.95

====

Biological target: recombinant human GST-Syk (Homo sapiens (Human))
Test: Homogeneous Time-Resolved Fluorescence (HTRF) assay for the recombinant human Syk enzyme
Settings: recombinant human GST-Syk 5 pM, ATP 25 μM, read-out: rhSyk IC50
Description: Syk inhibition may be determined using the following assay protocol: Homogeneous Time-Resolved Fluorescence (HTRF) Assay for the Recombinant Human Syk Enzyme: A recombinant GST-hSyk fusion protein was used to measure potency of compounds to inhibit human Syk activity. […] To initiate the reaction the biotinylated substrate peptide (250 nM final concentration) that contains the phosphorylation site for Syk was added with magnesium (5 mM final concentration) and ATP (25 μM final concentration). […]
QUANTITY_NAME: pIC50
Please report pIC50 as the negative decimal logarithm of the molar concentration, giving only the number.

Completed entries (count: 3):
Cc1cc(Nc2cc(C(F)(F)F)ccn2)nc(-c2ccc(C3(O)CCN(C(=O)c4cc(-c5ccncc5)[nH]n4)CC3)nc2)c1 = 7.92
Cc1cc(Nc2cc(C(F)(F)F)ccn2)nc(-c2ccc(NC3CCN(C(=O)c4cc5ccccc5n4C)CC3)nc2)c1 = 7.59
Cc1cc(Nc2cc(C(F)(F)F)ccn2)nc(-c2ccc(NC3CCN(C(=O)c4cccc(-c5cc[nH]n5)c4)CC3)nc2)c1 = 7.82

Query molecule follows.
Checklist item: pIC50 tested on recombinant human GST-Syk (Homo sapiens (Human)), entry Cc1cc(Nc2cc(C(F)(F)F)ccn2)nc(-c2ccc(C3(O)CCC(C(=O)O)CC3)nc2)c1 (stereo not shown) [Example 1-18] , value? 9.00

====

target: recombinant human GST-Syk (Homo sapiens (Human), UniProt P43405); experiment: Homogeneous Time-Resolved Fluorescence (HTRF) assay for the recombinant human Syk enzyme; details: recombinant human GST-Syk 5 pM, ATP 25 μM, read-out: rhSyk IC50
Each entry below carries its reported IC50.
Answer shape: numeric part, then the unit.

These solved cases illustrate the format of a correct answer.
Cc1cc(Nc2cc(C(F)(F)F)ccn2)nc(-c2ccc(C3(O)CCN(C(=O)c4ccc5cc[nH]c5c4)CC3)nc2)c1 [Example 9-2] = 13 nM
Cc1cc(Nc2cc(C(F)(F)F)ccn2)nc(-c2ccc(NC3CCN(C(=O)c4ccccc4Cn4cncn4)CC3)nc2)c1 [Example 4-26] = 7 nM
Cc1cc(Nc2cc(C(F)F)ccn2)nc(-c2ccc(C(C)(O)[C@H]3CC[C@H](C(=O)OC4CCOCC4)CC3)nc2)c1 (single isomer, unassigned) [Example 19-13] = 8.7 nM
Cc1cc(Nc2cc(C(F)(F)F)ccn2)nc(-c2ccc(NC3CCN(C(=O)c4ccnn4-c4ccccc4)CC3)nc2)c1 [Example 4-32] = 54 nM
Cc1cc(Nc2cc(C(F)F)ccn2)nc(-c2ccc(C(C)(O)[C@H]3CC[C@H](C(=O)OC(C)OC(=O)OC(C)C)CC3)nc2)c1 (single isomer, unassigned) [Example 20-3] = 110 nM

Could you share which IC50 value was measured for Cc1cc(Nc2cc(C(F)F)ccn2)nc(-c2ccc(C(C)(O)[C@H]3CC[C@H](C(=O)OC4CCCCC4)CC3)nc2)c1 (single isomer, unassigned) [Example 19-12] ? 47 nM

Any idea what its IC50 is? The compound is CCCOC(=O)[C@H]1CC[C@H](C(C)(O)c2ccc(-c3cc(C)cc(Nc4cc(C(F)F)ccn4)n3)cn2)CC1 (single isomer, unassigned) [Example 19-2] 32 nM

Name the recorded IC50 for Cc1cc(Nc2cc(C(F)(F)F)ccn2)nc(-c2ccc(NC3CCN(C(=O)c4cccc5ncccc45)CC3)nc2)c1 [Example 4-13] . 9 nM

Name the recorded IC50 for Cc1cc(Nc2cc(C(F)(F)F)ccn2)nc(-c2ccc(OC[C@H]3CC[C@H](C(=O)O)CC3)nc2)c1 [Example 3] . 3 nM

IC50 for CCCCOC(=O)C1CCC(C(C)(O)c2ccc(-c3cc(C)cc(Nc4cc(C(F)(F)F)ccn4)n3)cn2)CC1 (stereo not drawn) [Example 1-15] ? 19 nM

GET /values?readout=IC50&item= Cc1cc(Nc2cc(C(F)(F)F)ccn2)nc(-c2ccc(NC3CCN(C(=O)c4[nH]c5ccccc5c4C)CC3)nc2)c1 [Example 4-6] 22 nM

Data request, read-out IC50, for Cc1cc(Nc2cc(C(F)(F)F)ccn2)nc(-c2ccc(NC3CCN(C(=O)Cc4ccc(-c5cn[nH]c5)cc4)CC3)nc2)c1 [Example 4-1] 9 nM

====

Reported pIC50 values for a set of compounds
biological target: recombinant human GST-Syk (Homo sapiens (Human)); test: Homogeneous Time-Resolved Fluorescence (HTRF) assay for the recombinant human Syk enzyme; type: biochemical; details: recombinant human GST-Syk 5 pM, ATP 25 μM, read-out: rhSyk IC50
pIC50 here is simply -log10 of the concentration when that concentration is written in mol/L.

CCOC(=O)C1CCC(O)(c2ccc(-c3cc(C)cc(Nc4cc(C(F)(F)F)ccn4)n3)cn2)CC1 (stereo not shown) [Example 1-10] = 7.35
Cc1cc(Nc2cc(C(F)(F)F)ccn2)nc(-c2ccc(NC3CCN(C(=O)c4cccc5[nH]ccc45)CC3)nc2)c1 = 8.15
Cc1cc(Nc2cc(C(F)(F)F)ccn2)nc(-c2ccc(N3CCC(C4CCCCC4C(=O)O)CC3)nc2)c1 (stereo not shown) = 8.52
Cc1cc(Nc2cc(C(F)(F)F)ccn2)nc(-c2ccc(NCC3CCC(C(=O)O)CC3)nc2)c1 (stereo not shown) = 8.52

What value of pIC50 has been reported for the following compound? Cc1cc(Nc2cc(C(F)(F)F)ccn2)nc(-c2ccc(C3(O)CCN(C(=O)OC(C)(C)C)CC3)nc2)c1 6.39

Consider the compound Cc1cc(Nc2cc(C(F)(F)F)ccn2)nc(-c2ccc(F)nc2)c1 and give its measured pIC50. 7.42
